These measurements were taken from ChEMBL document CHEMBL2146361.

SUBJECT OF TEST: Neuronal acetylcholine receptor subunit alpha-7 (Homo sapiens)
Sequence (P36544 23-502 limits assumed): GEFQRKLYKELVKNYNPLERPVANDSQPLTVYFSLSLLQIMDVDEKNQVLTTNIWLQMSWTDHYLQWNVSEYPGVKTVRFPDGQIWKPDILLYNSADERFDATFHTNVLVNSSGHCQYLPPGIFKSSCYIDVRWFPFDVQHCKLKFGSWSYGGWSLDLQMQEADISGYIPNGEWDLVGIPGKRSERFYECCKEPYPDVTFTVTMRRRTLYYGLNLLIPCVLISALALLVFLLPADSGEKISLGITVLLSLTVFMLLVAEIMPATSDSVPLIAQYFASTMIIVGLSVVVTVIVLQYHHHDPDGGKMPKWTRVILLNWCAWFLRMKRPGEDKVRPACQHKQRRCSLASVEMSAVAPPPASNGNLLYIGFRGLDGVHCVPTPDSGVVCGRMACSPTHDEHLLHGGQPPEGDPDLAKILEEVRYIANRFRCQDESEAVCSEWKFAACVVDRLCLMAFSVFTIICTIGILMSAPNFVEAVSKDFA
MEASUREMENT PROTOCOL: Displacement of [3H]epibatidine from chimeric human alpha7-5-HT3A receptor expressed in HEK293 cells after 2 hrs by scintillation counter analysis

COMPOUND	SUBJECT OF TEST	DISPLAY UNIT	Ki
c1ccc(C2CN3CCC2CC3)cc1 (configuration not stated)	Neuronal acetylcholine receptor subunit alpha-7 (Homo sapiens)	nM	200
CC1CCN2CCc3c([nH]c4ccccc34)C2C1 (configuration not stated)	Neuronal acetylcholine receptor subunit alpha-7 (Homo sapiens)	nM	400

----------
SUBJECT OF TEST: Neuronal acetylcholine receptor subunit alpha-7 (Homo sapiens)
MEASUREMENT PROTOCOL: Displacement of [3H]epibatidine from chimeric human alpha7-5-HT3A receptor expressed in HEK293 cells after 2 hrs by scintillation counter analysis
Type: cell-based

COMPOUND	pKi
CC1CCN(CC(O)COc2ccc(-c3ccccc3)cc2)CC1 (centres undefined)	5.7
CC1/C(=N/O)CC(c2ccccc2)N(C)C1c1ccccc1 (centres undefined)	5.3
CC1C(c2ccccc2)NC(c2ccccc2)C(C)C1(C)O (centres undefined)	5.4
N#CCOCC(O)C[n+]1ccccc1 (centres undefined)	5.6
c1ccc(C2CN3CCC2CC3)cc1 (centres undefined)	6.7
CC1CCN2CCc3c([nH]c4ccccc34)C2C1 (centres undefined)	6.4
CN1CCc2[nH]c3ccccc3c2C1	5.2
COc1cc2c(cc1OC)C1CC(c3ccccc3)CCN1CC2 (centres undefined)	5.8
CC1CC2(CCCCCC2)NCc2ccccc21 (centres undefined)	5.1
